pIC50 data for Bovine LOX (Bos taurus (Bovine)) follow.
pIC50: −log10 of the molar value. Where a name gives a salt, the structure may show the parent alone.

{"Molecule": "NC/C=C(\\F)CS(=O)(=O)c1ccc(Cl)cc1 [Compound 27, hydrochloride]", "pIC50": "> 5.00"}
{"Molecule": "Cc1ccncc1S(=O)(=O)C/C(F)=C/CN [Compound 48, dihydrochloride]", "pIC50": "> 5.00"}
{"Molecule": "NC/C=C(\\F)CS(=O)(=O)c1ccccc1OCc1ccccc1 [Compound 7, hydrochloride]", "pIC50": "> 5.00"}
{"Molecule": "CC(C)c1ccc(S(=O)(=O)C/C(F)=C/CN)cn1 [Compound 49, dihydrochloride]", "pIC50": "> 5.00"}
{"Molecule": "NC/C=C(\\F)CS(=O)(=O)c1ccc2ccccc2c1 [Compound 24, hydrochloride]", "pIC50": "> 5.00"}
{"Molecule": "COc1ccccc1S(=O)(=O)C/C(F)=C/CN [Compound 22, hydrochloride]", "pIC50": "> 5.00"}
{"Molecule": "NC/C=C(\\F)CS(=O)(=O)c1ccccc1-c1ccccc1 [Compound 20, hydrochloride]", "pIC50": "> 5.00"}
{"Molecule": "Cc1cccnc1S(=O)(=O)C/C(F)=C/CN [Compound 43, dihydrochloride]", "pIC50": "> 5.00"}
{"Molecule": "Cc1ccccc1S(=O)(=O)C/C(F)=C/CN [Compound 40, hydrochloride]", "pIC50": "> 5.00"}
{"Molecule": "CC(C)NS(=O)(=O)c1ccc(COc2ccccc2S(=O)(=O)C/C(F)=C/CN)cc1 [Compound 14, hydrochloride]", "pIC50": "> 6.00"}
{"Molecule": "CN(C)S(=O)(=O)c1cccc(Oc2ccccc2S(=O)(=O)C/C(F)=C/CN)c1 [Compound 18, hydrochloride]", "pIC50": "> 6.00"}
{"Molecule": "Cc1ccc(S(=O)(=O)C/C(F)=C/CN)cn1 [Compound 46, dihydrochloride]", "pIC50": "> 5.00"}
{"Molecule": "CN(C)S(=O)(=O)c1ccc(COc2cccc(S(=O)(=O)C/C(F)=C/CN)c2)cc1 [Compound 9, hydrochloride]", "pIC50": "> 6.00"}
{"Molecule": "Cc1cccc(S(=O)(=O)C/C(F)=C/CN)n1 [Compound 36, dihydrochloride]", "pIC50": "> 5.00"}
{"Molecule": "NC/C=C(\\F)CS(=O)(=O)c1ccccc1 [Compound 1, hydrochloride]", "pIC50": "> 5.00"}
{"Molecule": "CC(C)N(C(C)C)S(=O)(=O)c1ccc(COc2ccccc2S(=O)(=O)C/C(F)=C/CN)cc1 [Compound 11, hydrochloride]", "pIC50": "> 6.00"}
{"Molecule": "NC/C=C(\\F)CS(=O)(=O)c1ccc(Cl)cc1Cl [Compound 25, hydrochloride]", "pIC50": "> 5.00"}

====

# Measurement Target: Human recombinant SSAO/VAP-1 (Homo sapiens (Human), UniProt Q16853)
# Sequence (Q16853 34-763): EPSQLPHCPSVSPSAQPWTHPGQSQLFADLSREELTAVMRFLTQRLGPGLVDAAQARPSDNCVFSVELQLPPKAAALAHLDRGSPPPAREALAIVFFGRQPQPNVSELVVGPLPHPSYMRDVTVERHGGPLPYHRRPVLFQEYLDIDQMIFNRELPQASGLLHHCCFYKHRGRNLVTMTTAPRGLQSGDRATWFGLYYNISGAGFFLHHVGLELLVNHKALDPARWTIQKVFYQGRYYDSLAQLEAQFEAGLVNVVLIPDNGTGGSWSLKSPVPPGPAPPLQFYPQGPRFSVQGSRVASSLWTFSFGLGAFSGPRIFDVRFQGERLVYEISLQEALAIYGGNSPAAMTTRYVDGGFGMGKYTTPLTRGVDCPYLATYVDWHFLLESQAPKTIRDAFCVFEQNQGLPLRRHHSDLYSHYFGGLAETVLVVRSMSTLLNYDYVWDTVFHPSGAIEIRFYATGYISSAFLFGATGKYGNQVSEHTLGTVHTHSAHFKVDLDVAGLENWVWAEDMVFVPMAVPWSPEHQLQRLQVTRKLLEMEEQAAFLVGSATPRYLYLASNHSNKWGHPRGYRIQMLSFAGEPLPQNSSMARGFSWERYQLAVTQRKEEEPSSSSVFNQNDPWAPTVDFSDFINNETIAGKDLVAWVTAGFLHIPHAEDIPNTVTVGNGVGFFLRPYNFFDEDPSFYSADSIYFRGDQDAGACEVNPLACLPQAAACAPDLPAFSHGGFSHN
# Method: Inhibition of human recombinant SSAO/VAP-1
# Assay type: biochemical
# Assay Context: second Table 6 (Example 38); read-out: Recombinant human SSAO (rhSSAO) inhibition (IC50)
pIC50: −log10 of the molar value. Structures can show the parent of a compound that is named as a salt.

{"Compound": "NC/C=C(\\F)CS(=O)(=O)c1ccccc1 [Compound 1, hydrochloride]", "Qualifier Operator": "<", "pIC50": 4.00}
{"Compound": "NC/C=C(\\F)CS(=O)(=O)c1cccnc1 [Compound 31, dihydrochloride]", "Qualifier Operator": "=", "pIC50": 4.57}

Cited source for all entries: patent US12178791B2
